# Tested on: PKMYT1
# assay.setup: Compound Concentration (nM):1000;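 also: KINOMEscan scanMAX binding as percent activity remaining versus control; lower means stronger binding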
Kindly return T if reported Percent Control is no lower than 90%; return F if it is lower.

Observe how each entry below is paired with its result.
Problem: Is it the case that Cc1cc(O)cc(C)c1/C=C/c1cncc(C(N)=O)c1 [GW435821X] has Percent Control reaching or exceeding 90%?
Result: F

Problem: Tell me whether Percent Control is at least 90% here: COc1ccc(COc2ccc(Cc3cnc(N)nc3N)cc2OC)cc1 [GW632580X]
Result: T

Problem: Exam item: decide whether the reported Percent Control for COc1cccc(-c2c[nH]c3c(N/N=C/c4ccncc4)ncnc23)c1 [GW814408X] is at least 90%.
Result: T

Problem: Would you say CC1=C(C(=O)Nc2ccc3[nH]ncc3c2)C(c2ccc(Cl)c(Cl)c2)CC(=O)N1 (stereo not drawn) [GSK299115A] shows Percent Control at minimum 90%?
Result: F

Problem: Could you tell me if the measured Percent Control of CN(C)CCNC(=O)Nc1ccc(N(C)c2ccnc(Nc3ccc(CS(C)(=O)=O)cc3)n2)cc1.Cl [GW830900A] reaches 90% or more?
Result: T

***
Problem: Reported Percent Control reaches at least 90% for Cl.O=C(Nc1ccc(Oc2ccc3[nH]c(NC(=O)c4ccccc4)nc3c2)cc1)Nc1cc(C(F)(F)F)ccc1F [GW709042A] ?
Result: T

Problem: Threshold query (Percent Control >= 90%) on COc1cccc(-n2ncc3c(N/N=C/c4ccncc4)ncnc32)c1 [GW784752X]
Result: T

Problem: Given the entry CCS(=O)(=O)c1ccc(OC)c(Nc2ncc(-c3cccc(F)c3)o2)c1 [GW621970X] , answer whether its Percent Control meets or surpasses 90%.
Result: T

Problem: Form field: Percent Control at least 90%? Entry: Cl.O=S1CCN(Cc2ccc(-c3ccc4ncnc(Nc5ccc(OCc6ccccc6)c(F)c5)c4c3)o2)CC1 [GW576924A]
Result: T

Problem: Does the compound O=C1Nc2ccc(C(=O)c3ccco3)cc2C1=Cc1cc(Cl)c(O)c(Cl)c1 [GW406108X] have recorded Percent Control that is 90% or more?
Result: T

Problem: Decide: is the reported value of Percent Control for CN(C)c1cc2c(Nc3ccc4c(cnn4Cc4ccccc4)c3)ncnc2cn1 [GW282974X] equal to or greater than 90%?
Result: F

* * *

Listed here are molecules together with their documented Percent Control.
# Tested on: YANK1
# Construct: gene STK32A
# assay.setup: Compound Concentration (nM):1000
Express it in %; write the number only.

Worked cases, Percent Control given:
Problem: Need Percent Control, item NS(=O)(=O)c1ccc(N/N=C2\C(=O)Nc3ccc(C(=O)NCc4ccncc4)cc32)cc1 [GW300657X]
Result: 100

Problem: Any idea what its Percent Control is? The molecule is CN(C)c1cc2c(Nc3ccc4c(cnn4Cc4ccccc4)c3)ncnc2cn1 [GW282974X]
Result: 100

Problem: Which Percent Control value belongs to COc1cccc(-c2c[nH]c3c(N/N=C/c4ccncc4)ncnc23)c1 [GW814408X] ?
Result: 90

Problem: State the recorded Percent Control for this entry: COc1cc2ncnc(Nc3ccc4c(cnn4Cc4ccccc4)c3)c2cc1OC.Cl [GW282449A]
Result: 100

Problem: Report Percent Control for COc1cc(C=NNc2ncnc3c2cnn3-c2ccccc2)ccc1O [GW513184X] please.
Result: 89

Others:
Problem: Tell me the measured Percent Control of C/C(Nc1ccc(S(N)(=O)=O)cc1)=C1/C(=O)Nc2ccccc21 [GW335962X] , please.
Result: 100

Problem: Percent Control lookup needed for `COc1ccc2cc(-c3c(-c4ccncc4)nc(-c4ccc(S(C)(=O)=O)cc4C)n3C)ccc2c1` , thanks.
Result: 41

Problem: Reported Percent Control for Cl.O=C(O[C@H]1CN[C@H](C#Cc2cc3ncnc(Nc4ccc5c(cnn5Cc5ccccc5)c4)c3s2)C1)N1CCOCC1 [GSK200398A] : what is it?
Result: 100

* * *

# Tested on: ANKK1
# assay.setup: Compound Concentration (nM):1000
List of Percent Control values.
Your answer is read as %, so omit the unit and give the number.

In the examples that follow, each entry is paired with its recorded Percent Control.
Problem: Record lookup: for ANKK1, what Percent Control belongs to COc1cc(N2CCN(C(C)C)CC2)ccc1Nc1nc(Nc2ccc(F)cc2C(=O)NC[C@@H](O)CO)c2cc[nH]c2n1 [GSK1392956A] ?
Result: 92

Problem: Tell me reported Percent Control for Cl.O=C(O[C@H]1CN[C@H](C#Cc2cc3ncnc(Nc4ccc5c(cnn5Cc5ccccc5)c4)c3s2)C1)N1CCOCC1 [GSK200398A] , tested with ANKK1.
Result: 100

Further cases:
Problem: Recorded Percent Control for COc1ccc2[nH]c3c4[nH]c5ccc(OC)cc5c4c4c(c3c2c1)C(=O)NC4=O [GW296115X] with ANKK1, please?
Result: 71

Problem: Request: Percent Control, test system ANKK1, entry COc1ccc(COc2ccc(Cc3cnc(N)nc3N)cc2OC)cc1 [GW632580X]
Result: 81

Problem: Form entry - test system: ANKK1; read-out: Percent Control; compound: COc1ccc2c(-c3ccnc(Nc4cccc(OC(F)(F)F)c4)n3)cnn2n1 [GW810372X]
Result: 89

* * *

# Tested on: HIPK4
# assay.setup: Compound Concentration (nM):1000
Each entry below carries its reported Percent Control.
A number alone suffices; assume %.

Illustrative cases are given below, each with its answer.
Problem: Name the recorded Percent Control for `COc1cc(C)c(N(C)C(=O)CN(C)C)cc1Nc1nc(Nc2cccc(F)c2C(N)=O)c2cc[nH]c2n1` .
Result: 100

Problem: Consider the molecule COc1cc(N2CCN(C(C)C)CC2)ccc1Nc1nc(Nc2ccc(F)cc2C(=O)NC[C@@H](O)CO)c2cc[nH]c2n1 [GSK1392956A] and give its measured Percent Control.
Result: 1.4

Problem: Fill in: Percent Control of COc1cc(/C=N/Nc2ncnc3[nH]ncc23)ccc1O [GW578748X] is ___
Result: 85

Continuing:
Problem: Need Percent Control of COc1ccccc1-c1cc(/C=C2\C(=O)Nc3ncc(Br)cc32)cc(Br)c1O [GW442130X] , thanks.
Result: 92

* * *

Some compounds, each annotated with its measured Percent Control.
# Test system: VEGFR2
# Construct: gene KDR
# assay.setup: Compound Concentration (nM):1000
Just the number in %, nothing appended.

Solved entries (count: 4):
Problem: I have this compound here, NS(=O)(=O)c1ccc(Nc2ncc(-c3ccccc3)o2)cc1 [GW572399X] , and I need its recorded Percent Control.
Result: 22

Problem: Suppose we examine the compound C/C(Nc1ccc(S(N)(=O)=O)cc1)=C1/C(=O)Nc2ccccc21 [GW335962X] ; what Percent Control value has been reported?
Result: 1.2

Problem: Entry Cc1cc(O)cc(C)c1/C=C/c1cncc(C(N)=O)c1 [GW435821X] has what Percent Control?
Result: 87

Problem: So what does the record say about Percent Control for CCn1c(-c2nonc2N)nc2c(C#CC(C)(C)O)nc(OCCNC)cc21.Cl [GSK949675] ?
Result: 83

Further cases:
Problem: Please look up its Percent Control: NS(=O)(=O)c1ccc(N/N=C2\C(=O)Nc3ccc(Cl)cc32)cc1 [GW280670X]
Result: 52

* * *

Each item that follows carries a reported Percent Control.
# Test system: TGFBR1
# assay.setup: Compound Concentration (nM):1000
Your answer is read as %, so omit the unit and give the number.

The examples below pair each entry with its known result.
Problem: Which Percent Control value belongs to O=C1Nc2ccc(C(=O)c3ccco3)cc2C1=Cc1cc(Cl)c(O)c(Cl)c1 [GW406108X] ?
Result: 99

Problem: Record request: Percent Control value, item `CCc1ccc(Oc2nccc(-c3c(-c4ccc(F)cc4)ncn3C3CCNCC3)n2)cc1`
Result: 96

Problem: Entry CCS(=O)(=O)c1ccc(OC)c(Nc2ncc(-c3cccc(F)c3)o2)c1 [GW621970X] has what Percent Control?
Result: 100

Problem: Reported Percent Control for COc1ccc(COc2ccc(Cc3cnc(N)nc3N)cc2OC)cc1 [GW632580X] : what is it?
Result: 100

Now for another entry.
Problem: Bench note: what Percent Control did `NS(=O)(=O)c1ccc(N/N=C2\C(=O)Nc3ccc(-c4cnco4)cc32)cc1` show?
Result: 100

* * *

# Test system: CDK5
# assay.setup: Compound Concentration (nM):1000
Listed compounds paired with reported Percent Control
Numbers only; they are read as %.

Below, 2 compounds whose answers are already recorded.
Problem: Query: Percent Control; subject: COc1cccc(-n2ncc3c(N/N=C/c4ccncc4)ncnc32)c1 [GW784752X]
Result: 90

Problem: Look up Percent Control for this compound: C/C(Nc1ccc(S(N)(=O)=O)cc1)=C1/C(=O)Nc2ccccc21 [GW335962X]
Result: 100

---
Problem: Give its Percent Control value. Item: `O=C(Nc1n[nH]c2nc(-c3ccc(O)cc3)c(Br)cc12)C1CC1`
Result: 100

Problem: Data request, read-out Percent Control, for O=C1Nc2ccc(C(=O)c3ccco3)cc2C1=Cc1cc(Cl)c(O)c(Cl)c1 [GW406108X]
Result: 89

Problem: May I ask what Percent Control has been recorded for Cl.O=C(O[C@H]1CN[C@H](C#Cc2cc3ncnc(Nc4ccc5c(cnn5Cc5ccccc5)c4)c3s2)C1)N1CCOCC1 [GSK200398A] ?
Result: 100

Problem: // lookup Percent Control for Cl.O=S1CCN(Cc2ccc(-c3ccc4ncnc(Nc5ccc(OCc6ccccc6)c(F)c5)c4c3)o2)CC1 [GW576924A]
Result: 100

Problem: Dear colleague, I am looking for the recorded Percent Control of the following compound: CN(C)CCNC(=O)Nc1ccc(N(C)c2ccnc(Nc3ccc(CS(C)(=O)=O)cc3)n2)cc1.Cl [GW830900A]
Result: 85

Problem: Field request: Percent Control | item: COc1cc(N2CCN(C(C)C)CC2)ccc1Nc1nc(Nc2ccc(F)cc2C(=O)NC[C@@H](O)CO)c2cc[nH]c2n1 [GSK1392956A]
Result: 100
